B1: Azoarcus group I ribozyme (parent)
chain: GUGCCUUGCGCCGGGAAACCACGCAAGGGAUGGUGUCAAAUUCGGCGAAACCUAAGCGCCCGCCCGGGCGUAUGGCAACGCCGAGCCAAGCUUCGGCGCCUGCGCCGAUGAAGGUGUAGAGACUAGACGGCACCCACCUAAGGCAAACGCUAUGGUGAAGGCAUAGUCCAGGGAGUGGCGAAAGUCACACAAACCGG

- Variants of: B1
- Method notes: reverse-splicing fitness (ratio to wild type); higher = more active; in vitro selection; Mg2+ level not given
Observable: reverse-splicing fitness
I'd appreciate a reply containing only the number, no unit.

These recorded examples may help you get a feel for the data.
Mutations	reverse-splicing fitness
C82U A111U A120C A145C C150U C169G U176G	0.00538
C82U A120C A145G C150U C169G U176G	0.00466
A111U A120C C150G C169A	0.00861

So what does the record say about reverse-splicing fitness for A111C A145C C150G C169U U176A ?
0.00817

So what does the record say about reverse-splicing fitness for C82U A111U C150A C169G U176C ?
0.0217

So what does the record say about reverse-splicing fitness for C82U A111U A120C C169A U176A ?
0.0152

Source of measurements: the RNAGym collection of RNA variant scans (doi:10.1093/molbev/msab373)
